Provide the recorded Pre-emergence action against ORYSA in % for the entries that follow.
Test system: Oryza sativa (ORYSA)
Format: in vivo
Details: pre-emergence, 320 g/ha, crop plant compatibility, in comparison to untreated controls
Description: Seeds of monocotyledonous and dicotyledonous weed plants and crop plants are placed in plastic or organic planting pots and covered with soil. […] After about 3 weeks, the effect of the preparations is scored visually in comparison with untreated controls as percentages. […]
Answer in %, number only, no unit symbol.

Prompt line: Write down the reported Pre-emergence action against ORYSA in % (system: Oryza sativa (ORYSA)) of COC(=O)C=CC(C)NC(=O)COc1nn(-c2ccccn2)c(-c2ccc(F)nc2)c1Br (stereo not shown) [Example I-345]
Response line: 20

Prompt line: Write down the reported Pre-emergence action against ORYSA in % (system: Oryza sativa (ORYSA)) of CC(=O)CNC(=O)COc1nn(-c2ccnc(F)c2)c(-c2ccc(F)nc2)c1Br [III-07]
Response line: 20

Prompt line: Write down the reported Pre-emergence action against ORYSA in % (system: Oryza sativa (ORYSA)) of COC(=O)COc1nn(-c2ncccc2OC)c(-c2ccc(F)nc2)c1Cl [Example I-346]
Response line: 0

Prompt line: Write down the reported Pre-emergence action against ORYSA in % (system: Oryza sativa (ORYSA)) of COC(=O)COc1nn(-c2ncccc2F)c(-c2cncc(F)c2)c1Br [Example I-49]
Response line: 20
